Assay Summary: self-splicing fitness, log relative to wild type (ln ratio); higher = more splicing; Tetrahymena group I intron in knt gene, E. coli kanamycin selection, DiMSum; sequences stand for … in CUCUCU…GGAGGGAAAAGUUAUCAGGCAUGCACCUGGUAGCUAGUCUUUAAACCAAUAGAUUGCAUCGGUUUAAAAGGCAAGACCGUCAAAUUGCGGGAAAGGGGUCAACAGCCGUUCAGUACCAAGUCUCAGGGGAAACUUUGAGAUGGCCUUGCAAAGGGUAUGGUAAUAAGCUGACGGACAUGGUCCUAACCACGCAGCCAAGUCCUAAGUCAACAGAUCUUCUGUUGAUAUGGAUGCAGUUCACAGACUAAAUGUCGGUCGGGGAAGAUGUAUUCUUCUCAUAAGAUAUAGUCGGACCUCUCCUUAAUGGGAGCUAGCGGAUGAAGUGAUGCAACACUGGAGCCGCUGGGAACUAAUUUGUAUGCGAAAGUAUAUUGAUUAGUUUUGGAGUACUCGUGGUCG;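 note: selection with 25 µg/mL kanamycin versus none on LB agar overnight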
Measurement Parameters: 37 °C
Quantity Measured: self-splicing fitness (ln)
The reply should be a number, written without any unit.

> print(dat)
         entry.sequence  number
1  GAAUAGCAAUAUUACGAUGU   -1.04

Query sequence follows.
Item: AUUGAGCAAUAUUACGCUUU | self-splicing fitness (ln): -1.29

Value source: the supplement of paper PMC7877785
